Entry source: PubChem BioAssay AID1159580

Assay: chemical genetic growth profiling, strain panel (AID 1159580);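 also: tested at 20 µM; growth read once vehicle control cultures reached saturation at 30 °C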
Conditions: S. cerevisiae deletion strains, growth OD, locus YEL003W, strain gim4, stronger effect = lower value
In all, about 5,500 compounds went through this assay and about 2,000 (36%) were called active. Not shown: some 18% with an inconclusive outcome. The list shows a part of the results.
Label key: satisfied means normalized growth under 1; not satisfied means normalized growth of 1 or more.

COMPOUND: Cc1c(OCC(F)(F)F)ccnc1CS(=O)c1nc2ccccc2[nH]1 (stereo not given)
LABEL VALUE: not satisfied

Consider the additional compound presented here.
-- ask Find out if reported normalized growth for CC[C@@]1(O)C(=O)OCc2c1cc1n(c2=O)Cc2cc3ccccc3nc2-1 is less than 1
-- reply satisfied
